Ref: paper PMC9635925

# tested_on: MRGPRX2-WT (wild-type MRGPRX2 receptor) (Homo sapiens, UniProt Q96LB1)
# Construct: expressed in transfected cells
# Sequence (Q96LB1 whole entry): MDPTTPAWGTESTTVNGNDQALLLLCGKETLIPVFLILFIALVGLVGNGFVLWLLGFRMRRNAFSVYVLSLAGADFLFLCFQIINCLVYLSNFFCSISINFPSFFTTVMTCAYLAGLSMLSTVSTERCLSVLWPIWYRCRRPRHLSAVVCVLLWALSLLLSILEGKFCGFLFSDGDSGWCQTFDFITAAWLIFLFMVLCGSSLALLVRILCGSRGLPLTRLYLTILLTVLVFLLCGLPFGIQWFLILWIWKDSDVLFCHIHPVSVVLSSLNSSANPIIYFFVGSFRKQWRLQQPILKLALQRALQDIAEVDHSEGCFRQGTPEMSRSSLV
# experimental_protocol: Primary HTS, Ca2+ mobilization (fluorescence ratio, B-score) in HEK293-Gα15 cells stably expressing wild-type MRGPRX2
# Assay type: cell-based
# conditions: 10 μM compound, Supplementary Table 1
# Procedure: We performed an experimental HTS on the Johns Hopkins Drug Library, which includes 1,811 (57%) FDA-approved drugs among 3,456 total compounds (28% of all known drugs worldwide) ([15]). […] We utilized 10 μM compounds (each compound was tested in triplicate) and calculated the compound effect using the signal-to-background fluorescence ratio (see Supplementary Methods). […]
Structures can show the parent of a compound that is named as a salt.
assay_readout: B-scores (WT)
Respond numerically, and do not add a unit to the figure.

// B-scores (WT) lookup, key: NC[C@H](O)c1ccc(O)c(O)c1 [Norepinephrine]
28.83

// B-scores (WT) lookup, key: CCOC(=O)[C@H](CCc1ccccc1)N[C@@H](C)C(=O)N1[C@H](C(=O)O)C[C@@H]2CCC[C@@H]21 [Ramipril]
22.18

// B-scores (WT) lookup, key: CCCCC[C@H](O)/C=C/[C@H]1[C@H](O)CC(=O)[C@@H]1CCCCCCC(=O)O [Alprostadil]
42.04

// B-scores (WT) lookup, key: CN(C)CCCN1c2ccccc2CCc2ccccc21 [Imipramine Hydrochloride]
32.17

// B-scores (WT) lookup, key: COC(=O)C1=CCCN(C)C1 [Arecoline Hydrobromide]
28.78
